Task for the reader: assign each of the following compounds its reported MIC.
- Test system: Strep. suis (group D) SPS11
- Experiment: Veterinary bacteria MIC, Diagnostic Sensitivity Test Agar (Table 2)
- Assay type: cell-based
- Run Parameters: Streptococcus suis; Strep. suis (group D) SPS11; DST Agar, 10^4 organisms, 18 hours 37° C.; read-out: MIC
Don't forget the unit after the number, please.

Readout MIC for C/C(=C\C(=O)OCc1cccc([N+](=O)[O-])c1C)CC1OCC(CC2OC2C(C)C(C)O)C(O)C1O (stereo not drawn) [Example 8, 2-methyl-3-nitrobenzyl monate A] , test system Strep. suis (group D) SPS11, was 5 µg/mL

Readout MIC for C/C(=C\C(=O)OC(C)c1ccc([N+](=O)[O-])cc1)CC1OCC(CC2OC2C(C)C(C)O)C(O)C1O (stereo not drawn) [Example 4, 1-(p-nitrophenyl)ethyl monate A] , test system Strep. suis (group D) SPS11, was 20 µg/mL

Readout MIC for C/C(=C\C(=O)OCc1cccc([N+](=O)[O-])c1)CC1OCC(C/C=C/C(C)C(C)O)C(O)C1O (stereo not drawn) [Example 5, m-nitrobenzyl monate C] , test system Strep. suis (group D) SPS11, was 80 µg/mL

Data provenance is patent US4436751A.
